Experiment: chemical genetic growth profiling, strain panel (AID 1159580);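 note: tested at 20 µM; growth read once vehicle control cultures reached saturation at 30 °C; 1 = growth at the plate median or of vehicle wells; lower values mean less growth of the strain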
Details: S. cerevisiae deletion strains, growth OD, locus YOR001W, strain rrp6, hits give low values
In all, about 5,500 compounds went through this assay and about 2,000 (36%) were called active. Inconclusive results (about 18%) are left out. The list shows a part of the results.
MEASURED ATTRIBUTE: normalized growth
The answer should be a number; do not append a unit.

# normalized growth (compound: CC(C)NCC(O)c1cc(O)cc(O)c1 (stereo not given) ) is 0.994

// O=C(Cn1ccnc1[N+](=O)[O-])NCCO : normalized growth value = 1.02

Query CO[C@@]1(NC(=O)CSCC#N)C(=O)N2C(C(=O)O)=C(CSc3nnnn3C)CSC21 (stereo not given in full) yields normalized growth of 1.01

# normalized growth (compound: CCOC(=O)c1ccc(O)cc1 ) is 1.01

// field: normalized growth; key: O=C(O)c1ccccc1-c1c2cc(Br)c(=O)cc-2oc2[c]([Hg])c(O)c(Br)cc12 ; value = 1.04

# normalized growth of OC(Cn1cncn1)(Cn1cncn1)c1ccc(F)cc1F = 0.994

CC1(C)O[C@H]2[C@H](O)C[C@](O)(C(N)=O)C[C@H]2O1 yielded normalized growth of 1.04

Documented normalized growth of C[C@@H]1C(=O)OC2[C@H](O)C34[C@@H]5OC(=O)[C@@]3(O[C@@H]3OC(=O)[C@H](O)[C@@]34[C@H](C(C)(C)C)[C@H]5O)[C@]21O (stereo not given in full) : 0.972

The compound listed as C[N+]1(C)C2CC(OC(=O)[C@@H](CO)c3ccccc3)CC1C1OC12 (stereo not given in full) shows normalized growth equal to 1.04

Memo: CC(C)(Oc1ccc(C2CC2(Cl)Cl)cc1)C(=O)O (stereo not given) , reported normalized growth: 1.02

---

Test: chemical genetic growth profiling, strain panel (AID 1159580);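 note: tested at 20 µM; growth read once vehicle control cultures reached saturation at 30 °C; 1 = growth at the plate median or of vehicle wells; lower values mean less growth of the strain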
Conditions: S. cerevisiae deletion strains, growth OD, locus YJL187C, strain SWE1 (second series), hits give low values
Out of some 5,500 compounds screened, about 2,000 (36%) were called active. About 18% were inconclusive and are not listed. The list shows a part of the results.
MEASURED ATTRIBUTE: normalized growth
// return just the number, without any unit appended

C=CCSCC1Nc2cc(Cl)c(S(N)(=O)=O)cc2S(=O)(=O)N1 (stereo unspecified) yielded normalized growth of 1.01

So for C[C@@H]1C(=O)OC2[C@H](O)C34[C@@H]5OC(=O)[C@@]3(O[C@@H]3OC(=O)[C@H](O)[C@@]34[C@H](C(C)(C)C)[C@H]5O)[C@]21O (stereo partly specified) , the logged normalized growth turned out to be 1.01

# compound CC(=O)N[C@@H](CS)C(=O)O ; its normalized growth = 1.03

// recorded normalized growth for Oc1ccc2c(c1)OCC1c3cc4c(cc3OC21)OCO4 (stereo unspecified) : 0.966

The compound identified as COc1ccc2c(c1)O[C@H]1c3ccc(OC)cc3OC[C@@H]21 registered its normalized growth at 0.96

Lab note: measured normalized growth of CCNC(=O)CC[C@H](N)C(=O)O was 0.996

Kindly note the recorded normalized growth for CC(=O)OCC(COC(C)=O)OC(C)=O , which is 1.03

Value of normalized growth reported for the compound CC1=CC2C(CC1=O)C(C)=CCC2C(C)C (stereo unspecified) is 0.971

Entry CCCCN1CCCCC1C(=O)Nc1c(C)cccc1C (stereo unspecified) ; normalized growth = 1.01

For record COc1ccc2c(c1O)OCC1c3cc4c(cc3OC21)OCO4 (stereo unspecified) the listed normalized growth is 0.939

The compound listed as CC1C[C@H]2CC(=O)[C@H]3CCCN4CCC[C@H]2[C@]34C1 (stereo partly specified) shows normalized growth equal to 1.03

normalized growth measured on COc1ccc(CCN2CCC(Nc3nc4ccccc4n3Cc3ccc(F)cc3)CC2)cc1 = 0.976

normalized growth reading for CO[C@@]1(NC(=O)CSCC#N)C(=O)N2C(C(=O)O)=C(CSc3nnnn3C)CSC21 (stereo partly specified) : 1.01

The compound CC(=O)OCC(OC(C)=O)C(OC(C)=O)C(OC(C)=O)C(OC(C)=O)C(COC(C)=O)OC(C)=O (stereo unspecified) showed normalized growth equal to 1.02

Memo: CC1(C)O[C@@H]2CC3C4CCC5=CC(=O)CCC5(C)C4(F)C(O)CC3(C)[C@]2(C(=O)CCl)O1 (stereo partly specified) , reported normalized growth: 1.01

Item: NS(=O)(=O)c1cc2c(cc1Cl)NC(C(Cl)Cl)NS2(=O)=O (stereo unspecified) | normalized growth: 1.01

The compound O=C1[C@H](CCC(O)c2ccc(F)cc2)[C@@H](c2ccc(O)cc2)N1c1ccc(F)cc1 (stereo partly specified) showed normalized growth equal to 0.979

COc1ccc2c(c1OC)C(=O)OC2[C@H]1c2c(cc3c(c2OC)OCO3)CCN1C (stereo partly specified) yielded normalized growth of 0.997

Short answer for O=S1OCC2C(CO1)C1(Cl)C(Cl)=C(Cl)C2(Cl)C1(Cl)Cl (stereo unspecified) : normalized growth was 0.979

Briefly, normalized growth measured for C=CCCCCCCCCCCCC(O)CC(O)COC(C)=O (stereo unspecified) (tested in a mixture with another compound) : 0.967

Please fill in: normalized growth reported for COc1cc([C@@H]2c3cc4c(c(O)c3C[C@H]3COC(=O)[C@@H]32)OCO4)cc(OC)c1OC = 1.01

---

Experiment: chemical genetic growth profiling, strain panel (AID 1159580);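 note: tested at 20 µM; growth read once vehicle control cultures reached saturation at 30 °C; 1 = growth at the plate median or of vehicle wells; lower values mean less growth of the strain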
Conditions: S. cerevisiae deletion strains, growth OD, locus YJL187C, strain SWE1, hits give low values
Hit rate of the full screen: of about 5,500 compounds, about 2,000 (36%) were called active. Roughly 18% stayed inconclusive and do not appear here. The list shows a part of the results.
MEASURED ATTRIBUTE: normalized growth
The answer should be a number; do not append a unit.

Briefly, normalized growth measured for CC(=O)OC1CCC2(C)C(=CC=C3C2CCC2(C)C3CCC2C(C)/C=C/C(C)C(C)C)C1(C)C (stereo unspecified) : 1.04

In plain terms, C=C1CCC2C(CC2(C)C)C(=C)CC/C1=N\O (stereo unspecified) has a documented normalized growth of 1.01

Form field normalized growth, entry CSC(=NC#N)N1CCN(c2ccc([N+](=O)[O-])cn2)CC1 : 0.993

The value of normalized growth measured for the molecule CCCCOC(=O)c1ccccc1C(=O)OCCCC turned out to be 0.983

Recorded normalized growth (molecule Cc1coc2c1C(=O)C(=O)c1c-2ccc2c1CCCC2(C)C ): 0.965

Measured normalized growth, Nc1nc2ncc(=O)[nH]c2c(=O)[nH]1 : 0.976

// normalized growth lookup, molecule = CC1C[C@H]2CC(=O)[C@H]3CCCN4CCC[C@H]2[C@]34C1 (stereo partly specified) , result: 1

So, N#C/C(=C\c1ccc(Oc2ccccc2)nc1)S(=O)(=O)c1ccccc1 ? Its normalized growth was 0.993

Lab note: measured normalized growth of CCCCOC(=O)c1ccc(N)cc1 was 0.919

GET /value?item= COC(=O)C(O)c1ccccc1 (stereo unspecified) &field=normalized growth returns 0.997

# normalized growth of CC(C)NCC(O)c1cc(O)cc(O)c1 (stereo unspecified) = 0.987

molecule O=c1cc[nH]c(=S)[nH]1 , normalized growth observed: 1.01

Measured normalized growth of Cc1ccc(NS(C)(=O)=O)cc1N=Cc1ccc(Cl)c(Cl)c1 : 1.01

Reported normalized growth ( O=[N+]([O-])c1ccc2c(c1)NC(c1ccc([N+](=O)[O-])s1)O2 (stereo unspecified) ) = 0.0478

Item: Cc1cccc(Nc2ccccc2C(=O)O)c1C | normalized growth: 0.922

Query c1ccc(-c2cc3c(nn2)CCc2nonc2-3)cc1 yields normalized growth of 0.975

Record N#C/C(=C\c1cccn1-c1ccc(OC(F)(F)F)cc1)S(=O)(=O)c1ccccc1 . Reported normalized growth: 1.01

normalized growth reading for CC(=O)c1ccc(-c2cccs2)s1 : 0.978

Form field normalized growth, entry C=C1CCC(OC(C)=O)/C(C)=C/C[C@@H]2[C@@H]1CC2(C)C (stereo partly specified) : 1.01

get_value(item= Cc1ccc(Cl)c(Nc2ccccc2C(=O)O)c1Cl , readout=normalized growth) returns 0.891

For CC(=O)OCC[C@H](C)CCC=C(C)C the molecule record lists normalized growth as 0.982

Value of measured normalized growth for the entry Cc1nc(-c2ccc(S(=O)(=O)N3CCN(c4ncnc5scc(-c6ccccc6)c45)CC3)s2)cs1 : 1.02

For this molecule ( CC1(C)NC(=O)N(c2ccc([N+](=O)[O-])c(C(F)(F)F)c2)C1=O ), measured normalized growth is 0.981

The measured normalized growth associated with CC(C)(Oc1ccc(C2CC2(Cl)Cl)cc1)C(=O)O (stereo unspecified) reads 0.992

Lab book: normalized growth of CCCCN(CCCC)CCCOC(=O)c1ccc(N)cc1 noted as 0.992

// field: normalized growth; key: CC(C)C(C)/C=C/C(C)[C@H]1CCC2C3=CCC4CC(=O)CC[C@]4(C)C3CC[C@@]21C (stereo partly specified) ; value = 1

The measured normalized growth associated with CO/N=C(\C(=O)NC1C(=O)N2C(C(=O)O)=C(COC(N)=O)CSC12)c1ccco1 (stereo unspecified) reads 0.971

Record summary for C=CCSCC1Nc2cc(Cl)c(S(N)(=O)=O)cc2S(=O)(=O)N1 (stereo unspecified) : reported normalized growth = 1

Measured normalized growth of COC(=O)c1sccc1NC(=O)C1CC1 : 0.977

// field: normalized growth; key: CO/N=C(\C(=O)NC1C(=O)N2C(C(=O)OC(C)OC(C)=O)=C(COC(N)=O)CSC12)c1ccco1 (stereo unspecified) ; value = 1

Memo: CCC(C)(C)C(=O)O[C@H]1C[C@@H](C)C=C2C=C[C@H](C)[C@H](CC[C@@H]3C[C@@H](O)CC(=O)O3)[C@H]21 , reported normalized growth: 0.976

molecule CC(=O)CC(=O)Nc1ccccc1Cl , normalized growth observed: 0.995

Kindly note the recorded normalized growth for O=C1[C@H](CCC(O)c2ccc(F)cc2)[C@@H](c2ccc(O)cc2)N1c1ccc(F)cc1 (stereo partly specified) , which is 0.975

The reported value for CCCCCCOc1ccccc1C(N)=O in terms of normalized growth is 0.917

Measured normalized growth, Cc1c(Cl)cccc1Nc1ccccc1C(=O)O : 0.832

Entry under test: Cn1c(=O)c2[nH]cnc2n(C)c1=O . Its normalized growth was 1

Recorded result, CC1(C)O[C@H]2[C@H](O)C[C@](O)(C(N)=O)C[C@H]2O1 , normalized growth: 1.01

Consider O=C(O)c1ccccc1-c1c2cc(Br)c(=O)cc-2oc2[c]([Hg])c(O)c(Br)cc12 . Its measured normalized growth is 1.01

Memo: O=C(Cn1ccnc1[N+](=O)[O-])NCCO , reported normalized growth: 1.01

Notebook: C=CC(N)CCC(=O)O (stereo unspecified) , normalized growth read as 0.983

The molecule listed as CCCOc1ccc(C(=O)OCCN(CC)CC)cc1N has a reported normalized growth of 1

normalized growth for COc1ccc(CCN2CCC(Nc3nc4ccccc4n3Cc3ccc(F)cc3)CC2)cc1 is 0.982

Value of measured normalized growth for the entry O=C(O)CN(CC(=O)O)Cc1cc2c(-c3ccccc3C(=O)O)c3cc(CN(CC(=O)O)CC(=O)O)c(=O)cc-3oc2cc1O : 0.963

normalized growth measured on COC(=O)C1=C(C)NC(C)=C(C(=O)OC)C1c1ccc(-c2ccsc2C(=O)OC)o1 = 1.01

Data point: OCCOCCN1CCN(C2=Nc3ccccc3Sc3ccccc32)CC1 ; normalized growth = 1.01

The measured normalized growth associated with COc1c2ccoc2c(OC)c2oc(=O)ccc12 reads 0.951
